Catalogue of SPOT intensity values
Biological target: Sho1, P40073
Sequence (P40073 287-367): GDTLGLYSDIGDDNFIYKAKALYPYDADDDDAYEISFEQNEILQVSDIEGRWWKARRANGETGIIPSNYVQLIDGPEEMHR
Test: SPOT array
Settings: median of control spots 1148
observable: SPOT intensity

binder	assay result
TPEIPPPLPPKIMVH	52
KRRTSLFPWLHKPGI	61
VATSTSPKLPPRGKQ	1
VQQDSLPKLPFRSWG	66
